Target: Herceptin containing human κ light chain subgroup 1 (Vκ1) (manufactured by Chugai Pharmaceutical Co., Ltd.)
Assay: ELISA; antibody immobilised (10 ug/mL), binding protein at 50 ug/mL, Anti-6-His detection, blank-subtracted
endpoint-label: Polyclonal antibody-binding activity (abs@450 nm)

{"binder": "FpL_C3KX 4h (designed binder) ETPEEPAEEVTIRVNLIFADGQIQTAEFIGTFEEATARAYAYANLLARDYGGYTADLEDGGYTINIRFAGHHHHHH", "observed": 0.69}
{"binder": "FpL_C3KR (designed binder) ETPEEPREEVTIRVNLIFADGRIQTAEFRGTFEEATARAYAYANLLARENGEYTADLEDGGNTINIRFAGHHHHHH", "observed": 0.92}
{"binder": "FpL_C4KR (designed binder) ETPEEPREEVTIRVNLIFADGRTQTAEFRGTFEEATAEAYRYADLLARVNGEYTADLEDGGYTINIRFAGHHHHHH", "observed": 0.65}
{"binder": "FpL_C3KX 3a (designed binder) ETPEEPAEEVTIRVNLIFADGQIQTAEFIGTFEEATARAYAYANLLAREYGGYTADLEDGGYTINIRFAGHHHHHH", "observed": 0.87}

From: patent US20250002543A1
